TARGET_UNDER_TEST: UniProt Q16581
Sequence (Q16581 whole entry): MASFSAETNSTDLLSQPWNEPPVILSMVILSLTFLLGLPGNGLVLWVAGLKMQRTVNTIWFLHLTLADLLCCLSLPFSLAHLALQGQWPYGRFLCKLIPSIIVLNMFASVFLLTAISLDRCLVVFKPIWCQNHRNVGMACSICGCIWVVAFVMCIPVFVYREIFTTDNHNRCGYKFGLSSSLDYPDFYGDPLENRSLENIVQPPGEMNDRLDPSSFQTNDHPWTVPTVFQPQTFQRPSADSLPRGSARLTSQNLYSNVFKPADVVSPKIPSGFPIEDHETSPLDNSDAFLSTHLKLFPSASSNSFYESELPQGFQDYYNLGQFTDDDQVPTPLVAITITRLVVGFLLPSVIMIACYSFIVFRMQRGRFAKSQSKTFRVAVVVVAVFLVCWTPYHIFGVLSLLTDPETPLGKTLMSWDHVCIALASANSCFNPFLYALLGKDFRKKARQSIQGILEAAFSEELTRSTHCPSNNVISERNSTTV
PROTOCOL_DETAILS: Agonist activity at human C3a receptor in human U937 cells assessed as induction of intracellular calcium release
Type: functional, cell-based, U-937
RUN_CONDITIONS: read-out: EC50
Square brackets hold non-standard residues; d marks the D form. Peptide text beside a SMILES is read from it. 1Nal = N[C@@H](Cc1cccc2ccccc12)C(=O)O; Cha = N[C@@H](CC1CCCCC1)C(=O)O
Provide the recorded pEC50 for the entries that follow.
Numbers only, as −log10 of the molar value.

These recorded examples may help you get a feel for the data.
COMPOUND: CSCC[C@H](NC(=O)[C@@H]1CCCN1C(=O)[C@H](CCCCN)NC(=O)[C@H](Cc1cnc[nH]1)NC(=O)[C@H](CO)NC(=O)[C@@H](N)Cc1ccc(O)cc1)C(=O)N1CCC[C@H]1C(=O)N[C@@H](CC(C)C)C(=O)N[C@H](C)C(=O)N[C@@H](CCCN=C(N)N)C(=O)O
TARGET_UNDER_TEST: UniProt Q16581
MEASURE: pEC50
RESULT: 5.24
--
COMPOUND: CC(C)C[C@H](NC(=O)[C@@H]1CCCN1C(=O)[C@H](CC1CCCCC1)NC(=O)[C@@H](N)Cc1ccccc1)C(=O)N[C@@H](C)C(=O)N[C@@H](CCCNC(=N)N)C(=O)O (H-F[Cha]PLAR-OH)
TARGET_UNDER_TEST: UniProt Q16581
MEASURE: pEC50
RESULT: 6.11

Please turn your attention to the following entry.
Could you share which pEC50 value was measured for CC(C)C[C@H](NC(=O)[C@@H]1CCCN1C(=O)[C@H](Cc1cccc2ccccc12)NC(=O)[C@@H](N)Cc1ccccc1)C(=O)N[C@@H](C)C(=O)N[C@@H](CCCNC(=N)N)C(=O)O (H-F[1Nal]PLAR-OH) ?
6.14
